observation type: melting point

{"columns": ["smiles notation", "readout value"],
 "data": [
  ["CS(=O)(=O)c1ccc(-c2ssc(=S)c2-c2ccccc2F)cc1", "173 to 174 °C"],
  ["CCCOc1ccc(-c2c(-c3ccc(S(C)(=O)=O)cc3)ssc2=S)cc1", "177 to 178 °C"],
  ["CCOc1ccc(-c2c(-c3ccc(S(C)(=O)=O)cc3)ssc2=S)cc1", "210 to 212 °C"],
  ["Cc1ccc(-c2c(-c3ccc(F)c(F)c3)ssc2=S)cc1", "140 to 142 °C"],
  ["CS(=O)(=O)c1ccc(-c2ssc(=S)c2-c2ccccc2Cl)cc1", "161 to 162 °C"]
]}

Please turn your attention to the following entry.
Problem: Using known records, supply melting point for CS(=O)(=O)c1ccc(-c2ssc(=S)c2-c2ccccc2Br)cc1
Result: 179 to 180 °C
